Values from ChEMBL document CHEMBL1201862

target-under-test: Luciferin 4-monooxygenase (Photinus pyralis)
Sequence (P08659 whole entry): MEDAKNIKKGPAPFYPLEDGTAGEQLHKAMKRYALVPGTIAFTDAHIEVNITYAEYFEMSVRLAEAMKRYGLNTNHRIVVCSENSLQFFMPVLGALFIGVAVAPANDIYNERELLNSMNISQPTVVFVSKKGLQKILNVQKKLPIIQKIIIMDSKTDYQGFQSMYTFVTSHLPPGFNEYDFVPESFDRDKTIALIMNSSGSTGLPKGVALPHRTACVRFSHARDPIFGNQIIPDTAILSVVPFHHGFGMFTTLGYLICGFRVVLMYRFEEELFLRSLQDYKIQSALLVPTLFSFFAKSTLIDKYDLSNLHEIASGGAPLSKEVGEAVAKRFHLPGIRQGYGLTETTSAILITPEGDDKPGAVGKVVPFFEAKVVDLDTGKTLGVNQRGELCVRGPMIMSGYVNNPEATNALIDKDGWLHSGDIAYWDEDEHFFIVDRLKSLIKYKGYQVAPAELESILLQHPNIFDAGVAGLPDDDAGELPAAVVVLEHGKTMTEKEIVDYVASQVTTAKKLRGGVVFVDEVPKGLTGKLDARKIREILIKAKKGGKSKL
experimental-details: firefly luciferase enzyme inhibitors, dose response, biochemical, luminescence (AID 1891)
Activity calls are given as the source filed them.

| compound | EC50 |
| --- | --- |
| COc1ccccc1C(=O)COC(=O)/C=C/c1ccccc1 | > 112 µM (not active) |
| CCN=C(S)NNC(=O)c1cc(-c2cccc(OC)c2)nc2ccccc12 | 0.259 µM (active) |
| O=C1COc2ccc(C(=O)COC(=O)c3cc(S(=O)(=O)N4CCOCC4)ccc3F)cc2N1 | > 112 µM (not active) |
| COc1ccc(C(=O)ON=C(N)c2ccccc2)cc1 | 1.21 µM (active) |
| Cc1ccc(NS(=O)(=O)c2cccc(C(=O)N3CCCCCCC3)c2)cc1 | > 112 µM (not active) |
| COc1ccc(Cl)cc1NC(=O)c1cc(S(=O)(=O)N2CCCC2)cn1C | > 112 µM (not active) |
| COc1ccccc1NC(=O)N(Cc1ccco1)Cc1cc2ccc(C)c(C)c2nc1O | > 112 µM (not active) |
| COc1ccc(C(N)=O)cc1NC(=O)c1cccc(F)c1 | > 112 µM (not active) |
| CSc1nnc(N2C(=O)C(O)=C(C(=O)c3ccco3)C2c2cccc(Cl)c2)s1 (stereo not given) | > 112 µM (not active) |
| O=c1[nH]c2ccc(NC(=S)Nc3ccccc3Cl)cc2[nH]1 | > 112 µM (not active) |

====

target-under-test: Ephrin type-A receptor 4 (Mus musculus)
Sequence (Q03137 whole entry): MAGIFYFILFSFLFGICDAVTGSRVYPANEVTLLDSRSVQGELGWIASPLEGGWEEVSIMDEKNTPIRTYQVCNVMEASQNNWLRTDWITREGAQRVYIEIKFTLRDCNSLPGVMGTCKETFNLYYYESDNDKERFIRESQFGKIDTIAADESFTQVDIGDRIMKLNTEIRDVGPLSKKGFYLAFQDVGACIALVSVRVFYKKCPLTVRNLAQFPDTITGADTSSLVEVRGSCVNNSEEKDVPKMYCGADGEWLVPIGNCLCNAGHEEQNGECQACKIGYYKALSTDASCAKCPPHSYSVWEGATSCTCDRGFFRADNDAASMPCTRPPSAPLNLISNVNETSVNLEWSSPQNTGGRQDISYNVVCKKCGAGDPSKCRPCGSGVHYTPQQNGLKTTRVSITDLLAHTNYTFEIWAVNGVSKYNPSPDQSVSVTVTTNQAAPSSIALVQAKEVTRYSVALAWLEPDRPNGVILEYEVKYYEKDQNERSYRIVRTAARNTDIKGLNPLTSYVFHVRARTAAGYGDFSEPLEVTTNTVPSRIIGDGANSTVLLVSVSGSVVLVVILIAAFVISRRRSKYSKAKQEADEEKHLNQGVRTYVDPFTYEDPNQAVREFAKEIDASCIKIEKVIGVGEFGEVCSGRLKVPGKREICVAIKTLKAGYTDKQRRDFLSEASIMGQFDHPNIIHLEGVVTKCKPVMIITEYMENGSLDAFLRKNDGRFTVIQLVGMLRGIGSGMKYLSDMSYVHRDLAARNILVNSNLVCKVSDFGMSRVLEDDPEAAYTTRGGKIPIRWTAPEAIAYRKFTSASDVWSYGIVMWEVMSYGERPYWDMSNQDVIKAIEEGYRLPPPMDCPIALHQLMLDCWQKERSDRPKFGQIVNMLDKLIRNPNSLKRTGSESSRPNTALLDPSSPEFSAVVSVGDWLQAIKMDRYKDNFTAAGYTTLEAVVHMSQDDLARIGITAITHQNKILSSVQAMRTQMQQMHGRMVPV
experimental-details: inhibitors of EphA4 binding to KYL peptide, primary screen, biochemical, colorimetric, mouse EphA4 (AID 689)
Type: functional
Active and inactive are the calls of the source.
parameter: IC50

| input-smiles | measured-result |
| --- | --- |
| CSc1ccccc1/N=C/c1nc(-c2ccccc2)oc1O | 37.6 µM (active) |
| O=[N+]([O-])c1ccc(N(c2ccccc2)c2ccccc2)cc1 | 10.8 µM (active) |
| C=CCn1c(SCC(=O)Nc2ncc(Cc3cc(C(F)(F)F)ccc3Cl)s2)nnc1-c1ccncc1 | > 100 µM (not active) |
| Cn1cc([N+](=O)[O-])c(C(=O)Nc2ccc3c(c2)OCCO3)n1 | > 100 µM (not active) |

====

target-under-test: Cytochrome P450 1A2 (Homo sapiens, UniProt P05177);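 further: PubChem cytochrome P450 panel assay, CYP1A2 panel member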
Sequence (P05177 whole entry): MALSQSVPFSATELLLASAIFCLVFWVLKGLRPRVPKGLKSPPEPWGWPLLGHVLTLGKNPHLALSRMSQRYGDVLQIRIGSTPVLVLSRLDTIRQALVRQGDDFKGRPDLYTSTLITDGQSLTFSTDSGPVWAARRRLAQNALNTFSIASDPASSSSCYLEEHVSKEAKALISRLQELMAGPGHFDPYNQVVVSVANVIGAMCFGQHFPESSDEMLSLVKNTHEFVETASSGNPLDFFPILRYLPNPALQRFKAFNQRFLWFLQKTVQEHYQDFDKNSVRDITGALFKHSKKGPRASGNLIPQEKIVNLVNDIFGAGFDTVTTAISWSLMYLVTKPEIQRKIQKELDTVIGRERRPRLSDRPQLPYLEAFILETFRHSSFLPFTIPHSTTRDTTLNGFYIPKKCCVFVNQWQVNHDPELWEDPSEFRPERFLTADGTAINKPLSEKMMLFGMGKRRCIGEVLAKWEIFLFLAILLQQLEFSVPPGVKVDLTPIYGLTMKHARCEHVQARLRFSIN
Quick list: AC50 per entry.
parameter: AC50

| input-smiles | parameter | measured-result |
| --- | --- | --- |
| COC(=O)c1[nH]c2cc(OC)ccc2c1NC(=O)c1nonc1C | AC50 | 0.794 µM (inconclusive) |
| CC(/C=C1\N=C(SCc2ccccc2Cl)SC1=O)=C\c1ccccc1 | AC50 | 4.47 µM (inconclusive) |
| N#C/C(=C/c1ccc(N2CCCC2)c([N+](=O)[O-])c1)c1nc2ccccc2[nH]1 | AC50 | 3.55 µM (inconclusive) |
| CC(C)n1cnc2c(C(=O)N[C@H]3CN4CCC3CC4)cc(Cl)cc21 | AC50 | 39.8 µM (inconclusive) |
| CS(=O)(=O)N1CCC2(CCCN(C(=O)Nc3ccccc3)C2)CC1 | AC50 | 15.8 µM (inconclusive) |
| O=C(CCCn1c(=S)[nH]c2cc3c(cc2c1=O)OCO3)N1CCN(c2ccccc2)CC1 | AC50 | 4.47 µM (inconclusive) |
| COc1ccc(C(N)=O)cc1NC(=O)c1cccc(F)c1 | AC50 | 5.01 µM (inconclusive) |
| COC(=O)c1cc2n(n1)CCN(Cc1ccccc1F)C2=O | AC50 | 15.8 µM (inconclusive) |
| O=C(CNS(=O)(=O)c1ccc(Br)s1)N1CCC2(CC1)OCCO2 | AC50 | 15.8 µM (inconclusive) |
| COc1ccc(C(=O)N/N=C2/C(=O)c3c(C)cc(C)cc3CC2(C)C)cc1 | AC50 | 5.01 µM (inconclusive) |

====

EC50 values, listed per item
Tested on: Streptococcus sp. 'group A'
experimental-details: growth inhibition of control SK(-) GAS strain, dose response, counter-screen for streptokinase expression inhibitor project, luminescence, kanamycin, BacTiterGlo, confirmation (AID 1900)
Format: functional, organism-based
Calls of active or inactive are those of the source.

| input-smiles | EC50 |
| --- | --- |
| CCCCCCCCCC[N+](C)(C)CC/C=C1/c2ccccc2Sc2ccc(Cl)cc21 | 1.75 µM (active) |
| C=CCn1c(SC/C(O)=C(/C#N)C(C)=N)nc2sc(C)c(C)c2c1=O | 6.33 µM (active) |
| C/C(=N\Nc1nc2ccccc2s1)c1ccc2c(c1)OCO2 | 16.7 µM (active) |
| COc1ccc2nc3c(O)n(/N=C/c4ccc(OC)c(CN5CCCC5)c4)c(C)nc-3c2c1 | 17.8 µM (active) |

====

target-under-test: DNA repair and recombination protein RAD54-like (Homo sapiens)
Sequence (Q92698 whole entry): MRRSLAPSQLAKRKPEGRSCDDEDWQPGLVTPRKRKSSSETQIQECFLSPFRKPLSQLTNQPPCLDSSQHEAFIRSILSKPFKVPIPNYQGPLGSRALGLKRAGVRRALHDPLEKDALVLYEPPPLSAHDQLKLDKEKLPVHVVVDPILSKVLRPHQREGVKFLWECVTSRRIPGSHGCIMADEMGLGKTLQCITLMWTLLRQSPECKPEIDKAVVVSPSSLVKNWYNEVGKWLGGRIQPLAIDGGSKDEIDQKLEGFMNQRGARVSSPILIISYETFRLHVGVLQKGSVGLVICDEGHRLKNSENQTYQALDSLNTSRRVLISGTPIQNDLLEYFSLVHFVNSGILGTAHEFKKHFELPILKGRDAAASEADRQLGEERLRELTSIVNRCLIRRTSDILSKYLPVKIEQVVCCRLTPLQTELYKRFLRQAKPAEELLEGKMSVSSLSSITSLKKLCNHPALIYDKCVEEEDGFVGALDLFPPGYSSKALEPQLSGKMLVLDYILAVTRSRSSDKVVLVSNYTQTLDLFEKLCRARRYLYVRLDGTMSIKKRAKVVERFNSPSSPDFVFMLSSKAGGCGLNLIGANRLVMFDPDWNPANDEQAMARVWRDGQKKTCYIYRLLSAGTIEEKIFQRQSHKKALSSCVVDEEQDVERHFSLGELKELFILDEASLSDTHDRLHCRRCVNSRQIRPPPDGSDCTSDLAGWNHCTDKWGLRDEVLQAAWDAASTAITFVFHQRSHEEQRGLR
experimental-details: inhibitors of human RAD54 branch migration, confirmation, biochemical, fluorescence, cherry-picked samples, dose series (AID 651657)
Assay type: functional
Calls of active or inactive are those of the source.
Outcome codes: 1 (yes) for active, 0 (no) for inactive

| compound | assigned-class |
| --- | --- |
| CCOCCCN=C(S)Nc1ccc2nc(N3CCCC3)cc(C)c2c1 | 0 (no) |
| COc1ccc2nc(-c3ccc(N)cc3)[nH]c2c1 | 1 (yes) |
| Cc1cc2oc3ccc(NCCC4CCCN4C)cc3c(=O)c2cc1C (stereo not drawn) | 1 (yes) |

====

experimental-details: cytotoxicity toward NIH3T3 fibroblasts, dose response, counter-screen, cell-based, ATP luminescence, mouse fibroblasts (AID 2010);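 further: cells exposed to compound for about 90 hours before reading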
Assay type: functional
The source made the active and inactive calls.
parameter: EC50

| molecule | measured-result |
| --- | --- |
| CCOC(=O)c1sc(NC(=O)CN2C(=O)NC3(CC(C)CC(C)(C)C3)C2=O)cc1C (stereo not drawn) | 9.25 µM (active) |
| CN1CCN(CC(=O)C23CC4CC(CC(C4)C2)C3)CC1 | > 30 µM (not active) |
| O=C(N/N=C/c1ccc(O)cc1)Nc1cccc2nsnc12 | 10.8 µM (active) |
| Cc1cc(C(=O)NNc2ccccc2F)no1 | 5.14 µM (active) |
| COc1ccc(C(=O)C[n+]2cc(-c3ccc(OC)cc3)n3c2CCCC3)cc1 | > 60 µM (not active) |
| COC(=O)c1c(NC(=O)COc2ccc(Cl)cc2)sc2c1CC(C)(C)NC2(C)C | 10.4 µM (active) |
| O=C(CSc1nnnn1-c1ccc(O)cc1)N1N=C(c2ccc3ccccc3c2)CC1c1ccccc1 (stereo not drawn) | > 60 µM (not active) |
| O=C1CC(NS(=O)(=O)c2ccc([N+](=O)[O-])cc2)CN1c1cccc(F)c1 (stereo not drawn) | > 60 µM (not active) |

====

Each entry below lists one item and its recorded EC50 value.
Test system: Streptococcus
experimental-details: Group A Streptococcus viability loss, dose response, counter-screen for streptokinase expression inhibitor project, luminescence, BacTiterGlo (AID 1915);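 further: potency for reduction of bacterial viability or growth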
Type: functional, organism-based
Calls of active or inactive are those of the source.

| input-smiles | EC50 |
| --- | --- |
| CC(C)c1nc(NCc2ccccc2)c(C#N)c2c1CCCC2 | 12.2 µM (active) |
| O=C(CSc1nc(O)c2c(C(F)(F)F)cc(-c3cccs3)nc2n1)Nc1ccc(F)c(F)c1 | 2.58 µM (active) |
| CCN1/C(=C/C(C)=C/c2sc3ccccc3[n+]2CC)Sc2ccccc21 | 2.74 µM (active) |
| O=C(Nc1nnc(C2CCCCC2)s1)c1ccc(Br)s1 | > 150 µM (not active) |
| COc1ccc(-c2cc(C(=O)NNC(=S)NC(=O)c3c(-c4ccccc4)noc3C)[nH]n2)cc1 | 4.58 µM (active) |
